test system: Bacteria; experiment: Inhibition of beta-lactamase ImiS (unknown origin) in expressed Escherichia coli BL21 (DE3) assessed as potentiation of imipenem induced antibacterial activity by measuring imipenem MIC at 64 ug/ml incubated for 16 hrs by CLSI broth microdilution method (reference value: 16 ug/ml); conditions: dose 64.0 µg/ml
Quantity Name: MIC (µg/mL)

NS(=O)(=O)c1ccc(NC(=O)c2ccccc2)cc1 | 8
NS(=O)(=O)c1cccc(NC(=O)CCc2ccccc2)c1 | 4
CC(C)(C)c1ccc(C(=O)Nc2cccc(S(N)(=O)=O)c2)cc1 | 4
NS(=O)(=O)c1cccc(NC(=O)c2ccc(C(F)(F)F)cc2)c1 | 4
NS(=O)(=O)c1ccc(NC(=O)CC(c2ccccc2)c2ccccc2)cc1 | 8
NS(=O)(=O)c1ccccc1NC(=O)c1ccc(Cl)cc1 | 8
NS(=O)(=O)c1ccc(NC(=O)c2ccc(Cl)cc2)cc1 | 8
CC(C)(C)c1ccc(C(=O)Nc2ccccc2S(N)(=O)=O)cc1 | 8

(A) NS(=O)(=O)c1ccc(NC(=O)c2cccc(Br)c2)cc1
(B) COC(=O)c1ccc(C(=O)Nc2cccc(S(N)(=O)=O)c2)cc1
Input: Which value of MIC is greater, the one for A or the one for B ? Could you answer with the label of the item you picked?
Output: A
(A: 8 µg/mL, B: 4 µg/mL)

(P) COC(=O)c1ccc(C(=O)Nc2ccc(S(N)(=O)=O)cc2)cc1
(Q) NS(=O)(=O)c1cccc(NC(=O)c2cccc([N+](=O)[O-])c2)c1
Input: Select the item whose MIC value is smaller, choosing between P and Q . Kindly give the label for the entry you pick.
Output: Q

(1) NS(=O)(=O)c1ccc(NC(=O)c2ccc(C(F)(F)F)cc2)cc1
(2) NS(=O)(=O)c1cccc(NC(=O)c2ccccc2)c1
Input: Looking at 1 and 2 , which one comes out lower in MIC terms? Respond using the label that marks the chosen record.
Output: 2
(2: 4 µg/mL, 1: 8 µg/mL)
